Molecular target: Prp8 intein (Cryptococcus gattii, UniProt E6R027)
Sequence (E6R027 entry or part of it): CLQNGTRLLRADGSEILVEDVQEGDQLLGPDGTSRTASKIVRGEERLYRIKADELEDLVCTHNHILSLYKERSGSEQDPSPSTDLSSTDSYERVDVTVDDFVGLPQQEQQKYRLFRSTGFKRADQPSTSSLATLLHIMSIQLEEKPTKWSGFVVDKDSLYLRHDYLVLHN
Assay: Split GFP-Prp8i intein splicing assay
Format: biochemical
Settings: split GFP-Prp8 intein splicing
Description: Cloning, expression and purfication—The split GFP-Prp8i was constructed using a mega-PCR mutagenesis approach. […] After digestion with Dpn I restriction enzyme, the PCR product was transformed into DH5α Escherichia coli. Clones were verified by plasmid DNA sequencing. […] […] Two readings were taken, one prior to addition of TCEP (I0) and one after incubation overnight with TCEP (If). Fluorescence/luminescence differences (ΔFluorescence or ΔLuminescence) were defined as If−I0 for each well. […]
pIC50: −log10 of the molar value.

>  <STRUCTURE NOTATION>
O=C(Nc1ccc(F)cc1)c1nnc(Sc2ccc(Cl)cc2)s1

>  <pIC50>
< 4.30

$$$$
>  <STRUCTURE NOTATION>
O=C(Nc1ccc(F)cc1F)c1nnsc1Sc1ccc(Cl)cc1

>  <pIC50>
< 4.30

$$$$
>  <STRUCTURE NOTATION>
O=C(Nc1ccc(F)cc1F)c1ncsc1S(=O)(=O)c1ccc(Cl)cc1

>  <pIC50>
< 4.30

$$$$
